# Target Entity: human somatostatin receptor subtype SSTR4 (human) (UniProt P31391)
# Sequence (P31391 whole entry): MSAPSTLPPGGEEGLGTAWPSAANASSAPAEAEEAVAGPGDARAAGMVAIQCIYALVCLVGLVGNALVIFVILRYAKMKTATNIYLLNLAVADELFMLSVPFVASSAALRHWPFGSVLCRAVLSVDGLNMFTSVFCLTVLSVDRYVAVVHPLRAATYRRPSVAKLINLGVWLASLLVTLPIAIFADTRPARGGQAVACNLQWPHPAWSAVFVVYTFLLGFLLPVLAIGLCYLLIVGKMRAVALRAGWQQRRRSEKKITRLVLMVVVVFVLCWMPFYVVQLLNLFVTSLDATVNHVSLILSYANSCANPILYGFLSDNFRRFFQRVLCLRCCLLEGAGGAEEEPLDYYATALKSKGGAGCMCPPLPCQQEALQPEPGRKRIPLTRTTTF
# Assay Comment: FACS, transfected HEK-293 cells
*1 amine or outer side, *2 acyl side, *3 side chain or, on linkers, in order; H or OH if unused. Bridges are numbered along the chain shown (N, C = ends). Primed or numbered codes have the meaning given here. [ ]: non-standard residue; d: D form. N(2-mercaptoethyl)Gly = O=C(CN(CCS[*:3])[*:1])[*:2]; FITC′ = fluorescein isothiocyanate; Orn = NCCC[C@H](N)C(=O)O; GABA = NCCCC(=O)O
Measured Relative binding affinity of individual entries
Number plus unit, in that order.

1. XCFWXXTFX (FITC-GABA-DPhe-Cys*-Phe-Trp-DTrp-LysAc-Thr-Phe-GlyS2*-NH2 (* = S-S bond; LysAc = acetyllysine; GlyS2 = N-thioethyl glycine; C-terminal amide)) [Compound 14]	3%
2. {FITC′-GABA}-[dF]RCF[dW]KTF[N(2-mercaptoethyl)Gly]-NH2 (disulfide 3-9) [Compound 2]	4%
3. {FITC′-GABA}-[dF]CY[dW][Orn]TF[N(2-mercaptoethyl)Gly]-NH2 (disulfide 2-8) [Compound 7]	1.5%

Below: the item to evaluate.
I would be grateful if you could share the reported Relative binding affinity for XCFWXXTFX (FITC-GABA-DPhe-Cys*-Phe-Trp-DTrp-HomoLys-Thr-Phe-GlyS2*-NH2 (* = S-S bond; HomoLys = homolysine; GlyS2 = N-thioethyl glycine; C-terminal amide)) [Compound 16] .
4.5%
